- procedure text: NCI Yeast Anticancer Drug Screen. Data for the bub3 strain (AID 167)
- run conditions: S. cerevisiae bub3 mutant strain, at 100.0 µM, hits give high values
About 79,000 compounds went through this panel and 15% of them were active in at least one assay; those are over-represented in the sample as a whole.
Listed next: entries and their corresponding growth inhibition.
Numeric answer only, unit % assumed.

Solved entries (count: 5):
compound="Nc1ncnc2c1ncn2C1OC(CO)CC1O (centres undefined)" experimental_endpoint="growth inhibition" quantitative_readout=92
compound=N#CC(C#N)=NNc1ccc(S(=O)(=O)O)cc1 experimental_endpoint="growth inhibition" quantitative_readout=-26
compound=Cc1csc(=S)n1OC(=O)NC1CCCCC1 experimental_endpoint="growth inhibition" quantitative_readout=99
compound=CC1=C(C(=O)NCc2ccccc2)C(c2ccccc2)C(C(=O)NCc2ccccc2)=C(C)N1 experimental_endpoint="growth inhibition" quantitative_readout=94
compound="O=C(CC(C(=O)O)N1CCOCC1)c1ccccc1 (centres undefined)" experimental_endpoint="growth inhibition" quantitative_readout=68

Now take the following compound into account.
Prompt line: Query growth inhibition for `O=C(C[n+]1ccc2ccccc2c1)c1ccc2ccccc2c1`
Response line: 98
